# Assay Details: CCTE_Shafer_MEA_acute_per_burst_spike_number_mean: CCTE's Neural Acute Assay for Average Number of Spikes Per Burst, Shafer Lab (AID 2284015);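 also: hits are decreases in mean spikes per burst versus baseline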
Calls of active or inactive are those of the source. The calls were made as follows: active = hit-call score of the fitted dose curve at least 0.9, where 1 is the maximum; inactive = score below 0.9.
Would you mind answering with one of these outcomes? active, inactive

Task: Outcome? CC1(C)[C@H](C(=O)O[C@H](C#N)c2cccc(Oc3ccccc3)c2)[C@@H]1/C=C(\Cl)C(F)(F)F
Result: active

Task: Outcome? CC(C)(C)c1ccccc1O
Result: inactive

Task: Outcome? CS(=O)(=O)c1ccc(C(=O)C2C(=O)CCCC2=O)c(Cl)c1COCC(F)(F)F
Result: inactive

Task: Outcome? O=C(Cc1ccccc1)OCCc1ccccc1
Result: inactive

Task: Outcome? OCCCCO
Result: inactive

Task: Outcome? Oc1cc(Cl)c(Cl)cc1Cl
Result: inactive

Task: Outcome? Cc1cc(C(F)(C(F)(F)F)C(F)(F)F)ccc1NC(=O)c1cccc(I)c1C(=O)NC(C)(C)CS(C)(=O)=O
Result: active

Task: Outcome? CCCCOC(=O)COC(=O)c1ccccc1C(=O)OCCCC
Result: inactive

Task: Outcome? CC(C)[C@@H](Nc1ccc(C(F)(F)F)cc1Cl)C(=O)OC(C#N)c1cccc(Oc2ccccc2)c1 (some centres undefined)
Result: active

====

# Assay Details: IUF_NPC2a_radial_glia_migration_120hr: Leibniz Research Institute for Environmental Medicine (IUF) 120-hour Neural Progenitor Cell Migration Assay for Radial Glia Migration (NPC2a) (AID 2284298)
Active and inactive are the calls of the source. The calls were made as follows: active = hit-call score of the fitted dose curve at least 0.9, where 1 is the maximum; inactive = score below 0.9.
Would you mind answering with one of these outcomes? active, inactive

Task: Outcome? Cc1ccccc1OP(=O)(Oc1ccccc1C)Oc1ccccc1C
Result: active

Task: Outcome? CCOCn1c(-c2ccc(Cl)cc2)c(C#N)c(Br)c1C(F)(F)F
Result: active

Task: Outcome? CC(C)[C@@H](Nc1ccc(C(F)(F)F)cc1Cl)C(=O)OC(C#N)c1cccc(Oc2ccccc2)c1 (stereo not given in full)
Result: inactive

Task: Outcome? O=S1OC[C@@H]2[C@H](CO1)[C@]1(Cl)C(Cl)=C(Cl)[C@@]2(Cl)C1(Cl)Cl (stereo not given in full)
Result: inactive

Task: Outcome? CC1(C)[C@H](C(=O)O[C@H](C#N)c2cccc(Oc3ccccc3)c2)[C@@H]1/C=C(\Cl)C(F)(F)F
Result: inactive

====

# Tested System: X-box-binding protein 1 (Homo sapiens)
# Assay Details: ATG_Xbp1_CIS: Attagene CIS-FACTORIAL HepG2 Assay for human X-box Binding Protein 1 (XBP1) (AID 2282972)
# Test Settings: HepG2 XBP1 cis-element reporter, Attagene multiplex; actives raise or lower the signal
The source made the active and inactive calls. How the source made its calls: active means hit-call score of the fitted dose curve at least 0.9, where 1 is the maximum; inactive means score below 0.9.
Would you mind answering with one of these outcomes? true (1) = active, false (0) = inactive

Task: Outcome? O=[N+]([O-])c1ccc(Cl)c([N+](=O)[O-])c1
Result: false (0)

Task: Outcome? O=S(=O)(Oc1ccc(Cl)cc1)c1ccc(Cl)cc1
Result: false (0)

Task: Outcome? O=c1nc(O)n(Cl)c(=O)n1Cl
Result: false (0)

Task: Outcome? Nc1ccc(Br)cc1
Result: false (0)

Task: Outcome? C=CC(=O)OCC(COC(=O)C=C)(COC(=O)C=C)COC(=O)C=C
Result: true (1)

Task: Outcome? CC(c1ccc(O)cc1)c1ccc(O)cc1
Result: true (1)

Task: Outcome? CCN(CCO)CCO
Result: false (0)

Task: Outcome? ClCCCCl
Result: false (0)

Task: Outcome? CCN(N=O)C(N)=O
Result: false (0)

Task: Outcome? O=C1C=CC(=O)c2ccccc21
Result: false (0)

Task: Outcome? CC1(C)[C@H](C(=O)O[C@H](C#N)c2cccc(Oc3ccccc3)c2)[C@@H]1/C=C(\Cl)C(F)(F)F
Result: false (0)

Task: Outcome? C=C(C)C(=O)OCC(CC)CCCC (stereo not given)
Result: false (0)

Task: Outcome? Cc1ccc(OP(=O)(Oc2ccc(C)cc2C)Oc2ccc(C)cc2C)c(C)c1
Result: false (0)

Task: Outcome? CC1(C)COP(Oc2ccccc2)OC1
Result: false (0)

Task: Outcome? Cc1cc(Cl)ccc1OCCCC(=O)O
Result: false (0)

Task: Outcome? C=CCCl
Result: false (0)

Task: Outcome? Cc1cccc(C)c1NC(=O)CN1CCCC1=O
Result: false (0)

Task: Outcome? CCCCOC(=O)COC(=O)c1ccccc1C(=O)OCCCC
Result: false (0)

Task: Outcome? ClCc1ccccc1CCl
Result: true (1)

Task: Outcome? Clc1cc(C(Cl)(Cl)Cl)cnc1Cl
Result: false (0)

Task: Outcome? CC(C)(C1CCC(O)CC1)C1CCC(O)CC1 (stereo not given)
Result: false (0)

Task: Outcome? C#CCOC(=O)/C=C(C)/C=C/CC(C)CCCC(C)C (stereo not given)
Result: false (0)

Task: Outcome? NC(=O)CCl
Result: false (0)

Task: Outcome? CC(=Cc1ccccc1)[N+](=O)[O-]
Result: true (1)

Task: Outcome? CCCCCCCCBr
Result: false (0)

Task: Outcome? CC(C)(COCC1CO1)COCC1CO1 (stereo not given)
Result: false (0)

Task: Outcome? Nc1cccnc1
Result: false (0)

Task: Outcome? COC(=O)c1cc(Oc2ccc(Cl)cc2Cl)ccc1[N+](=O)[O-]
Result: false (0)

Task: Outcome? CC[N+](CC)(CC)CC
Result: false (0)

Task: Outcome? O=C(NC(=O)c1c(F)cccc1F)Nc1ccc(Cl)cc1
Result: false (0)
